# System: UO-31
# Protocol: NCI tumour cell line growth inhibition, 48 h
The source made the active and inactive calls. Rule as the data show it: active = GI50 up to about 1.1 µM and inactive = higher.
Metric Name: GI50

Retrieve GI50 measured for CCN1CCC(O)(c2ccc(Oc3ccc(Cl)cc3)cc2)C(C(=O)c2ccc(Oc3ccc(Cl)cc3)cc2)C1 (stereo not drawn) and print it.
13.6 µM (inactive)

Retrieve GI50 measured for c1ccc2c(Cc3c[nH]c4ccccc34)c[nH]c2c1 and print it.
14.1 µM (inactive)

Retrieve GI50 measured for O=C(O)CCNC(=O)c1cc(N(CCBr)CCBr)c([N+](=O)[O-])cc1[N+](=O)[O-] and print it.
> 100 µM (inactive)

Retrieve GI50 measured for COC(=O)Cc1nn2c(nc1=O)sc1ccc3ccccc3c12 and print it.
> 100 µM (inactive)

Retrieve GI50 measured for Nc1ccccc1C(=O)CCc1c[nH]c2ccccc12 and print it.
5.4 µM (inactive)

Retrieve GI50 measured for c1ccc(-c2nnc(SCc3c[nH]c4ccccc34)n2-c2ccccc2)cc1 and print it.
> 100 µM (inactive)

Retrieve GI50 measured for CCC(=O)C(CCN1CCC(N2C(=O)C(CCC#N)c3ccccc32)CC1)(c1ccccc1)c1ccccc1 (stereo not drawn) and print it.
9.53 µM (inactive)

Retrieve GI50 measured for O=C(O)/C=C\C(=O)Nc1ccccn1 and print it.
> 100 µM (inactive)

----------
# System: ACHN
# Protocol: NCI tumour cell line growth inhibition, 48 h
The source made the active and inactive calls. No stated cut-off is given here; in the data, active = GI50 up to about 1.1 µM and inactive = higher.
Pick one: yes for active, no for inactive

Per the assay record, what outcome was assigned to COc1cc(/C=C\c2ccc(Br)cc2)cc(OC)c1OC ?
yes

Per the assay record, what outcome was assigned to O=C1c2ccccc2S(=O)(=O)c2c1cccc2[N+](=O)[O-] ?
no

Per the assay record, what outcome was assigned to CCOC(=O)C1=C(Nc2cccc3ccccc23)OCC1=O ?
no

Further cases:
Per the assay record, what outcome was assigned to COc1cc(NS(=O)(=O)c2ccc(C)cc2)c2nccnc2c1 ?
no

Per the assay record, what outcome was assigned to C=C=C(C(=O)OC)[S+]([O-])c1ccccc1[N+](=O)[O-] (stereo unspecified) ?
no

Per the assay record, what outcome was assigned to CC(C)=CC1C(COC(=O)c2cc3c(cc2Cl)OCO3)C1(C)C (stereo unspecified) ?
no

Per the assay record, what outcome was assigned to COc1cc(/C=C2\CCC(C)C3C2=NN(C(C)=O)C3c2cc(OC)c(OC)c(OC)c2)cc(OC)c1OC (stereo unspecified) ?
no

----------
# Test system: MCF7
# Protocol: NCI tumour cell line growth inhibition, 48 h
Active and inactive are the calls of the source. Rule as the data show it: active = GI50 up to about 1.1 µM and inactive = higher.
Metric Name: GI50

Retrieve GI50 measured for N#CCc1nc(O)c2ccccc2n1 and print it.
28.1 µM (inactive)

Retrieve GI50 measured for CCCCCCc1cc2cc(C(=O)Nc3ccc(F)cc3)c(=N)oc2cc1O and print it.
3.09 µM (inactive)

Retrieve GI50 measured for Cc1cc(=O)oc2cc(OC(=O)N(CCCl)CCCl)ccc12 and print it.
> 100 µM (inactive)

----------
# System: IGROV-1
# Protocol: NCI tumour cell line growth inhibition, 48 h
The source made the active and inactive calls. Rule as the data show it: active = GI50 up to about 1.1 µM and inactive = higher.
Pick one: active, inactive

Previously resolved entries follow.
Per the assay record, what outcome was assigned to COCCCNC(=O)C1C(=O)C(=O)N(CCCOC)C1=O (stereo unspecified) ?
inactive

Per the assay record, what outcome was assigned to CC(C)(Oc1ccc(/C=C/C(=O)c2ccc(Cl)cc2)cc1)C(=O)Nc1c(Cl)cccc1Cl ?
inactive

Per the assay record, what outcome was assigned to CC1=CC(=O)/C(=C/n2c(=S)[nH]c3ccccc32)C(=O)O1 ?
inactive

Further cases:
Per the assay record, what outcome was assigned to c1ccc2c(Cc3c[nH]c4ccccc34)c[nH]c2c1 [ARUNDINE] ?
inactive

Per the assay record, what outcome was assigned to CCOC(=O)C1(C(=O)OCC)CCC(C(OC)OC)C(CC(=O)OC)C1 (stereo unspecified) ?
inactive

Per the assay record, what outcome was assigned to CCCCCCc1cc2cc(C(=O)Nc3ccc(F)cc3)c(=N)oc2cc1O ?
inactive

Per the assay record, what outcome was assigned to C[P+](c1ccccc1)(c1ccc(Cl)cc1)c1ccc(Cl)cc1 ?
inactive

Per the assay record, what outcome was assigned to c1ccc(-c2nnc(SCc3c[nH]c4ccccc34)n2-c2ccccc2)cc1 ?
inactive

Per the assay record, what outcome was assigned to CC(=O)NC(CCCN(Cc1ccccc1)C(=O)NCCCl)C(=O)NCc1ccccc1 (stereo unspecified) ?
inactive

----------
# System: Malme-3M
# Protocol: NCI tumour cell line growth inhibition, 48 h
Activity calls are given as the source filed them. Rule as the data show it: active = GI50 up to about 1.1 µM and inactive = higher.
Reported GI50 by item:

Retrieve GI50 measured for O=C1C(Cl)=C(N2CCN(c3ccccn3)CC2)C(=O)c2ncccc21 and print it.
1.75 µM (inactive)

Retrieve GI50 measured for O=c1cn[nH]c(=S)n1/N=C/c1c[nH]c2ccccc12 and print it.
> 100 µM (inactive)

Retrieve GI50 measured for COC(=O)c1c(O)ccc2c1c1cc3ccccc3cc1n2Cc1cc(OC)cc(OC)c1 and print it.
1.22 µM (inactive)

Retrieve GI50 measured for Clc1ccc(C2=Nc3ccccc3SC(c3cccs3)C2)cc1 (stereo not given) and print it.
> 10 µM (inactive)

Further cases:
Retrieve GI50 measured for CCNc1ncnc2nn[nH]c12 and print it.
> 100 µM (inactive)

Retrieve GI50 measured for N/N=C1\C(OC(=O)Nc2ccccc2)=Nc2ccccc21 and print it.
13.2 µM (inactive)

Retrieve GI50 measured for C[C@]12Cc3cn[nH]c3C(=O)C1CC[C@@H]1C2CC[C@@]2(C)C1CC[C@]2(C)O (stereo not given in full) and print it.
> 100 µM (inactive)

----------
# Tested on: SNB-78
# Protocol: NCI tumour cell line growth inhibition, 48 h
Activity calls are given as the source filed them. Cut-off read from the data, not from the text of the source: active = GI50 up to about 1.1 µM and inactive = higher.
Metric Name: GI50

# annotated cases, reported GI50 shown
Retrieve GI50 measured for CN1C(=O)n2c(nc3ccccc32)C(N=[N+]=[N-])(N=[N+]=[N-])C1=O (configuration not stated) and print it.
> 100 µM (inactive)

Retrieve GI50 measured for O=C1C=CC(=O)c2nc3c(cc21)CCC3 and print it.
18.5 µM (inactive)

Further cases:
Retrieve GI50 measured for NCC(=O)NC(CCCC(NC(=O)CN)P(=O)(O)O)P(=O)(O)O (configuration not stated) and print it.
> 100 µM (inactive)

Retrieve GI50 measured for COC(=O)c1cc(O)ccc1NC(=O)c1ccc(O)cc1 and print it.
> 100 µM (inactive)

Retrieve GI50 measured for Cc1ccc([Se][Se]c2ccc(C)cc2)cc1 and print it.
16.5 µM (inactive)

Retrieve GI50 measured for O=S(=O)(O)c1cc(/N=[N+](\[O-])c2ccc(/N=N/c3ccccc3)cc2S(=O)(=O)O)ccc1/C=C/c1ccc(/N=[N+](\[O-])c2ccc(/N=N/c3ccccc3)cc2S(=O)(=O)O)cc1S(=O)(=O)O and print it.
> 100 µM (inactive)

Retrieve GI50 measured for Nc1cccc2c1C(=O)c1cccc(N)c1C2=O and print it.
> 100 µM (inactive)

Retrieve GI50 measured for COc1cc(Cl)c2c3c(c(C(C)=O)oc13)CCC2 and print it.
> 100 µM (inactive)

Retrieve GI50 measured for N/N=C1\C(=O)N(CCc2ccccc2)C(=O)C1C(=O)NCCc1ccccc1 (configuration not stated) and print it.
> 100 µM (inactive)

Retrieve GI50 measured for COc1ccc(/C=c2\sc3nnc(CCC(=O)Nc4cccc(C(F)(F)F)c4)n3c2=O)cc1 and print it.
> 100 µM (inactive)

Retrieve GI50 measured for CCN(CC)CCNC(=O)C1COc2ccc(-c3cc(=O)c4ccccc4o3)cc2O1 (configuration not stated) and print it.
10.1 µM (inactive)

Retrieve GI50 measured for CN/N=C(\C)C(CN1CCCCC1)C(C1=C(O)c2ccccc2OC1)c1ccccc1 (configuration not stated) and print it.
> 100 µM (inactive)

Retrieve GI50 measured for Nc1n[n+]([O-])c2ccccc2[n+]1[O-] [TIRAPAZAMINE] and print it.
> 100 µM (inactive)

----------
# Tested on: U-251
# Protocol: NCI tumour cell line growth inhibition, 48 h
The source made the active and inactive calls. No stated cut-off is given here; in the data, active = GI50 up to about 1.1 µM and inactive = higher.
Metric Name: GI50

Report GI50 on U-251 for this entry: COc1cc(C(c2cc3c(cc2O)OCO3)N2CCCC2)cc(OC)c1OC (centres undefined)
16.9 µM (inactive)

Report GI50 on U-251 for this entry: CC1(C)C(=O)C2(C#N)CCC1C2 (centres undefined)
> 100 µM (inactive)

Report GI50 on U-251 for this entry: COc1cc(/C=N\c2ccc(C(C)C)cc2)cc(OC)c1OC
> 100 µM (inactive)

Report GI50 on U-251 for this entry: CCOC(=O)C(Cc1ccccc1)(Cc1ccc(O)cn1)NC(=O)c1ccccc1 (centres undefined)
21.7 µM (inactive)

Report GI50 on U-251 for this entry: COc1nc(OC)c2c(=O)oc(-c3ccccc3)cc2n1
> 100 µM (inactive)

Report GI50 on U-251 for this entry: CCNc1ncnc2nn[nH]c12
> 100 µM (inactive)

Alright, here's another molecule for you.
Report GI50 on U-251 for this entry: c1ccc2[nH]c(-c3cscn3)nc2c1 [THIABENDAZOLE]
> 100 µM (inactive)

Reference source for all entries: ChEMBL document CHEMBL1201862
